system: MOLT-4; assay: NCI tumour cell line growth inhibition, 48 h
Active and inactive are the calls of the source. Rule as the data show it: active = GI50 up to about 1.1 µM and inactive = higher.
# GI50 values compiled below
REPORTED ENDPOINT: GI50

{"columns": ["MOLECULE", "SYSTEM NAME", "TEST RESULT"],
 "data": [
  ["O=c1nc2sc3ccc4ccccc4c3n2nc1-c1ccccc1", "MOLT-4", "> 100 µM (inactive)"],
  ["CCC1CCCCN1CC(C(C)=O)C(c1ccccc1)c1c(O)c2ccccc2oc1=O (stereo unspecified)", "MOLT-4", "> 100 µM (inactive)"],
  ["COC(=O)C12C(=O)CC3CCC1C32C(=O)OC (stereo unspecified)", "MOLT-4", "> 100 µM (inactive)"],
  ["CCOP(=O)(OCC)C(NC(=O)C(C(F)(F)F)C(F)(F)F)c1ccccc1 (stereo unspecified)", "MOLT-4", "67.3 µM (inactive)"],
  ["Cc1cc(C)c2c(=O)n(CN3CCC(C#N)(c4ccccc4)CC3)sc2n1", "MOLT-4", "49.4 µM (inactive)"],
  ["C#CCOC(=O)c1ccc(OC(C)=O)cc1", "MOLT-4", "> 100 µM (inactive)"],
  ["CC1C(=O)C(C)C(c2ccccc2)N(N=O)C1c1ccccc1 (stereo unspecified)", "MOLT-4", "> 695 µM (inactive)"],
  ["CCN(CC)/C(Cl)=C(Cl)\\C(=C1\\Nc2ccc(OC)cc21)[N+](=O)[O-]", "MOLT-4", "23.1 µM (inactive)"],
  ["CC1(C)CC2=NO[Se]3=C2C(=NO3)C1", "MOLT-4", "3.48 µM (inactive)"],
  ["O=C(NN1C(=O)CS(=O)(=O)C1c1cccc(F)c1)c1ccncc1 (stereo unspecified)", "MOLT-4", "> 100 µM (inactive)"],
  ["NC(=O)C(=O)C1C(=O)N(c2ccccc2)N=C1N (stereo unspecified)", "MOLT-4", "> 100 µM (inactive)"]
]}

###

system: HOP-62; experiment: NCI tumour cell line growth inhibition, 48 h
Calls of active or inactive are those of the source. No stated cut-off is given here; in the data, active = GI50 up to about 1.1 µM and inactive = higher.

{"columns": ["COMPOUND", "SYSTEM NAME", "GI50"],
 "data": [
  ["O=C(c1cccnc1)N1N=C(c2ccc3c(c2)OCO3)CC1(O)c1cc(F)c(Cl)cc1Cl (stereo not drawn)", "HOP-62", "18 µM (inactive)"],
  ["O=C(NO)c1ccc(C(=O)NO)cc1", "HOP-62", "62.2 µM (inactive)"],
  ["CC1CC[C@@]2(OC1)OC1C[C@H]3[C@@H]4CC=C5CC(OC6OC(CO)C(OC7OC(CO)C(O)C(OC8OCC(O)C(O)C8O)C7OC7OC(CO)C(O)C(O)C7O)C(O)C6O)CCC5(C)[C@H]4CCC3(C)C1[C@@H]2C (stereo partly drawn)", "HOP-62", "4.09 µM (inactive)"],
  ["COc1nc(NC2OC(COC(C)=O)C(OC(C)=O)C(OC(C)=O)C2OC(C)=O)c(/N=C/C=N/c2c(NC3OC(COC(C)=O)C(OC(C)=O)C(OC(C)=O)C3OC(C)=O)nc(OC)n(C)c2=O)c(=O)n1C (stereo not drawn)", "HOP-62", "28.1 µM (inactive)"],
  ["O=c1nc2sc3ccc4ccccc4c3n2nc1-c1ccccc1", "HOP-62", "26.7 µM (inactive)"],
  ["C#CCOC(=O)C(N)C(C)O (stereo not drawn)", "HOP-62", "> 100 µM (inactive)"],
  ["CCCCCCCCCCCCCCCCCCN(C)CC(COC)OP(=O)([O-])OCC[N+](C)(C)C (stereo not drawn)", "HOP-62", "1.72 µM (inactive)"],
  ["O=C(Nn1c(-c2ccccc2)nc2ccccc2c1=O)c1cccc([N+](=O)[O-])c1", "HOP-62", "> 100 µM (inactive)"]
]}
